Molecular target: Cytochrome P450 2C9 (Homo sapiens)
Assay: Cytochrome P450 family 2 subfamily C member 9 (CYP2C9) small molecule antagonists: luciferase biochemical (cell-free) qHTS assay (AID 1645842); also: nearly all actives have a fitted effect of over 55% in size
Conditions: P450-Glo CYP2C9 enzyme assay, luciferin luminescence; series mostly up to 57.4 µM
Inconclusive results are not listed. Calls of active or inactive are those of the source. Calls follow the shape of the dose curve; as a rule, active = well fitted inhibition curve with a large enough effect in the repeat runs; inconclusive = weak or mixed curves; inactive = no such curve, though single readings can be large or run the other way.
Respond using exactly one of the listed classes: active, inactive

• NC1CCN(c2nc3c(cc2F)c(=O)c(C(=O)O)cn3-c2ccc(F)cc2F)C1 (configuration not stated) = inactive
• Cc1ccc(O)c([C@H](CCN(C(C)C)C(C)C)c2ccccc2)c1 = inactive
• O=C1C(CCS(=O)c2ccccc2)C(=O)N(c2ccccc2)N1c1ccccc1 (configuration not stated) = active

How was CC(C)(C)NC[C@H](O)COc1nsnc1N1CCOCC1 classified in this test?
inactive

Similarly, CCc1cc(Cl)c(OC)c(C(=O)NC[C@@H]2CCCN2CC)c1O ?
inactive

Similarly, C=C[C@H]1CN2CC[C@H]1C[C@H]2[C@H](O)c1ccnc2ccc(OC)cc12 ?
inactive
